Where do the numbers come from? From patent US12509466B2.

# Tested on: RSV strain A2
# MEASUREMENT PROTOCOL: Anti-RSV cytoprotection assay in Hep2 cells
# Format: cell-based
# TEST CONDITIONS: human respiratory syncytial virus, HEp-2, 96 h; RSV-induced cytopathic effect, Hep2 cells, RSV strain A2, 4 days, Cell TiterGlo; read-out: EC50
ENDPOINT: EC50 (nM)

COMPOUND	EC50 [nM]
C#C[C@@]1(c2ccc3c(N)ncnn23)O[C@H](CO)[C@@H](O)[C@H]1O [Compound 13]	34000
CC(C)(C)C(=O)SCCOP(=O)(OCCSC(=O)C(C)(C)C)OC[C@H]1O[C@@](C#N)(c2ccc3c(N)ncnn23)[C@H](O)[C@@H]1O [Compound 15]	150
CCOC(=O)[C@H](C)NP(=O)(N[C@@H](C)C(=O)OCC)OC[C@H]1O[C@@](C#N)(c2ccc3c(N)ncnn23)[C@H](O)[C@@H]1O [Compound 12]	6500

P = C[C@@]1(c2ccc3c(N)ncnn23)O[C@H](CO)[C@@H](O)[C@H]1O [Compound 14]
Q = N#C[C@@]1(c2ccc3c(N)ncnn23)O[C@H](CO)[C@@H](O)[C@H]1O [Compound 1]
Request: Larger number for EC50: P , or Q ? Could you answer with the label of the item you picked?
Response: P
